The following molecules are shown together with reported mortality at 240 h values.
protocol details: Acute toxicity in the mouse, orally
Assay type: in vivo
experimental setup: in vivo, oral, dose 10 mg/kg, read-out: Mortality at 10th day %
outcome measure: mortality at 240 h (%)

[[record]]
molecule = "COc1ccc2c(c1)c(CC(=O)OC1OC(=O)c3ccccc31)c(C)n2C(=O)c1ccc(Cl)cc1 (centres unmarked) [Product B]"
result_unit = "%"
reading = 20

[[record]]
molecule = "COc1ccc2c(c1)c(CC(=O)O)c(C)n2C(=O)c1ccc(Cl)cc1 [Product A, reference compound]"
result_unit = "%"
reading = 40


* * *

protocol details: Acute toxicity in the mouse, orally
Format: in vivo
experimental setup: in vivo, oral, dose 28 mg/kg, read-out: Mortality at 10th day %
The following molecules are shown together with reported mortality at 240 h values.
outcome measure: mortality at 240 h (%)

[[record]]
molecule = "COc1ccc2c(c1)c(CC(=O)OC1OC(=O)c3ccccc31)c(C)n2C(=O)c1ccc(Cl)cc1 (centres unmarked)"
outcome_measure = "mortality at 240 h"
reading = 70

[[record]]
molecule = "COc1ccc2c(c1)c(CC(=O)O)c(C)n2C(=O)c1ccc(Cl)cc1 [Product A, reference compound]"
outcome_measure = "mortality at 240 h"
reading = 100


* * *

protocol details: Acute toxicity in the mouse, orally
Assay type: in vivo
experimental setup: in vivo, oral, dose 25 mg/kg, read-out: Mortality at 10th day %
The following compounds are shown together with reported mortality at 240 h values.
outcome measure: mortality at 240 h (%)

[[record]]
compound = "COc1ccc2c(c1)c(CC(=O)OC1OC(=O)c3ccccc31)c(C)n2C(=O)c1ccc(Cl)cc1 (centres unmarked)"
reading = 60

[[record]]
compound = "COc1ccc2c(c1)c(CC(=O)O)c(C)n2C(=O)c1ccc(Cl)cc1 [Product A, reference compound]"
reading = 100


Source: patent US4277489A
